# target: FRMPD2_2, Q68DX3
# Sequence (Q68DX3 944-1038): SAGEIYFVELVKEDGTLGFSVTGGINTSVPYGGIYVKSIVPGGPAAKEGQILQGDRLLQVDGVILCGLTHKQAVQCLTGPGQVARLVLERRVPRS
# protocol-details: holdup assay
# Parameters: key: below the threshold = too weak to quantify, mostly under pKd 3.1 to 4
# condition-summary: plain residues with an end cap or a label only (N-terminal biotin on a linker: ado-ado)

# binder, pKd
data = [
    ("LKVPPEERLI [CRB2, Q5IJ48]", "below the threshold"),
    ("YNNCLEILRV [DCAF7, P61962]", "below the threshold"),
    ("IPLDGETEEL [MYOZ1, Q9NP98]", "below the threshold"),
    ("SKENVQETQI [LRRC4B, Q9NT99]", 3.92),
    ("NHSSSPETTA [TRMT13, Q9NUP7]", "below the threshold"),
    ("VNKSKLLTDV [KCNA1, Q09470]", "below the threshold"),
    ("PPYRHRNTVV [ERBB4, Q15303]", "below the threshold"),
    ("DDENIRTSDV [PLEKHA2, Q9HB19]", 3.82),
    ("KKMPSIESDV [GRIN2A, Q12879]", 3.78),
    ("QHKTQLQTLI [BPIFA2, Q96DR5]", "below the threshold"),
]
